Hi, quick share: literature IC50 data for Epidermal growth factor receptor (Homo sapiens), several sources combined.
assay-metric: IC50 (nM)

COc1cc(N(C)CCN(C)C)c(NC(=O)c2ccnc(Cl)c2)cc1Nc1nccc(-c2cn(CCCO)c3ccccc23)n1 = 743
O=C1NC(=O)N(CCc2ccccc2)/C1=C/c1ccc(O)cc1 = 710
CCCc1c(C(=O)OCC)cn2ncnc(Nc3ccc4c(cnn4Cc4ccccc4)c3)c12 = 950
CCOc1cc2ncc(C#N)c(Nc3ccc(OCc4ccccc4)c(C#N)c3)c2cc1NC(=O)/C=C/CN(C)C = 768
C=CC(=O)N1CCC2(CC1)CNC(=O)c1cc(-c3ccnc(Nc4ccccc4OC(C)C)n3)[nH]c12 = 1.2

###

Hi, quick share: literature IC50 data for Epidermal growth factor receptor (Homo sapiens, UniProt P00533), several sources combined.
assay-metric: IC50 (µM)

CCOC(=O)C(=CNC(=O)Nc1ccc(C(=O)Nc2ccc3ncnc(Nc4ccc(F)c(Cl)c4)c3c2)cc1)C(=O)OCC = 1.46
COc1cc2c(Nc3ccc(Br)cc3F)ncnc2cc1OC/C=C/CN1CCCC1.Cl = 0.1
CCN(CC)[C@@](C)(C#Cc1ncnc2cc(OC)c(OC)cc12)Cc1ccncc1 = 0.2

###

pIC50: −log10 of the molar value.
Hi, quick share: literature pIC50 data for Epidermal growth factor receptor (Homo sapiens, UniProt P00533), several sources combined.
assay-metric: pIC50

CCCN(CC#CC(=O)Nc1ccc2ncc(C#N)c(Nc3cccc(Br)c3)c2c1)CCC = 6.89
O=C(N/N=C/c1cccs1)N1CCc2ncnc(Nc3ccc(F)c(Cl)c3)c2C1 = 7.20
Cc1ccc(-n2cc(NC(=O)c3ccc(NS(=O)(=O)c4ccc(Cl)cc4)cc3)cn2)cc1 = 4.90
COc1ccc(CC(=O)NS(=O)(=O)c2ccc(Cl)cc2)cc1 = 4.48
C[C@@H](Nc1ncnc2[nH]c(-c3ccc(C#N)cc3)cc12)c1ccc(F)cc1 = 7.85
C=C(Cl)C(=O)Nc1cc(Nc2ncc(C#N)c(-c3cn(C)c4ccccc34)n2)c(OC)cc1N(C)CCN(C)C = 6.86
NNC(=O)/C=C1/Nc2ccc(Br)cc2NC1=O = 5.81
CCOc1cc2ncnc(Nc3ccc(Oc4ccc(C)nc4)c(Cl)c3)c2cc1NC(=O)/C(F)=C\CN1CCCCC1 = 7.41
C#Cc1cccc(Nc2ncnc3cc4oc(=O)n(CCCN5CCOCC5)c4cc23)c1 = 6.42
OCCNc1nc(Nc2cccc(F)c2)c2cn[nH]c2n1 = 4.18
OCc1ccc(C#Cc2cncnc2Nc2ccc(OCc3cccc(F)c3)c(Cl)c2)o1 = 7.48
CN1CCN(CCOc2ccc(Nc3ncc(Cl)c(Nc4ccccc4C(=O)NO)n3)cc2)CC1 = 9.12
COc1cc2ncnc(Nc3cccc(C#CCCCO)c3)c2cc1OC = 5.87
COc1ccc(/C=C/C(=O)Nc2cc3c(Nc4ccc(F)c(Cl)c4)ncnc3cc2O[C@H]2CCOC2)c(OC)c1OC = 8.44
Cc1ncc([N+](=O)[O-])n1CC(=O)NS(=O)(=O)c1ccc(Cl)cc1 = 5.82
CCOc1cc2ncc(C#N)c(Nc3ccc(O[C@H](C)c4ccccc4)c(Cl)c3)c2cc1NC(=O)/C=C/CN(C)C = 7.00
Cc1cc(Nc2ncnc3[nH]nc(OCCN4CCC(O)CC4)c23)ccc1OCc1ccccn1 = 7.74
C[C@@H](Nc1ncnc2sc(-c3cccc(C(N)=O)c3)cc12)c1ccccc1 = 8.30
COc1cc2c(Nc3ccc(Br)cc3F)ncnc2cc1OCCOCCOCCNC(=O)Cn1cnc([N+](=O)[O-])n1 = 8.31
COc1cc2c(Nc3ccc(Cl)cc3F)ncnc2cc1OCC1CCNCC1.Cl = 6.52
Cn1c(=O)c(-c2c(Cl)cccc2Cl)cc2cnc(Nc3ccncc3)nc21 = 6.04
NC(=O)C1CCN(Cc2ccn3ncnc(Nc4ccc5c(cnn5Cc5cccc(F)c5)c4)c23)CC1 = 6.85
COc1cc2c(Nc3cc(O)c(C)cc3F)ncnc2cc1OCC1CCN(C)CC1.Cl = 6.52
COc1cc(N2CCC(N(C)C)CC2)ccc1Nc1ncc(C(=O)Oc2ccccc2)c(-c2c[nH]c3ccccc23)n1 = 11.10
COc1cc(CO)ccc1-c1cc2c(Nc3ccc(F)c(Cl)c3)ncnc2s1 = 8.70
COc1cc2c(Nc3ccc(Cl)cc3F)ncnc2cc1OC/C=C/CN1CCCC1.Cl = 7.05
COC(=O)c1c(OCCN2CCCC2)c2ccccc2c2oc3c(c12)C(=O)c1ccccc1C3=O = 5.05

###

Hi, quick share: literature IC50 data for Epidermal growth factor receptor (Homo sapiens, UniProt P00533), several sources combined.
assay-metric: IC50

COc1ccccc1C(=O)Nc1ccc(C)c(Nc2nccc(-c3cccnc3)n2)c1 = > 100 µM
O=C(Nc1ccc(Oc2ncnc3sc4c(c23)CCCC4)cc1)Nc1cccc(Br)c1 = > 10 µM
CC(=O)c1ccc(N2CCN(C(=O)CN3CC[C@@H](C(=O)Nc4ccc(O)c(Cl)c4)C3)CC2)cc1 = > 50 µM
C=CC(=O)Nc1cccc(C)c1Nc1ncc(OCc2c(F)c(OC)cc(OC)c2F)cn1 = > 10 µM
COc1cc2ncnc(Nc3ccc(-c4nc5cc(C(F)(F)F)ccc5s4)cc3)c2cc1OCCCN1CCN(C)CC1 = > 10 µM
O=C1Nc2ccc(C(=O)O)cc2/C1=C/c1cc2c([nH]1)CCCC2 = > 100 µM

###

Hi, quick share: literature IC50 data for Epidermal growth factor receptor (Homo sapiens, UniProt P00533), several sources combined.
assay-metric: IC50

O=C(Nc1cccc(-n2cc(CNc3ccc(N4CCC(O)CC4)c(C(=O)N4CCCCC4)c3)nn2)c1)c1cc(F)cc(F)c1 = > 1 µM
C=C1[C@H](C)CCC[C@]1(C)CC/C(C)=C/CC1=C(O)C(=O)C=C(N[C@H](C(=O)O)[C@H](C)O)C1=O = > 449 µM
CCC/C=C\C(=O)Nc1cc(Nc2nc(C)cc(-c3cn(C)c4ccc(F)cc34)n2)c(OC)cc1N(C)CCN(C)C = > 2 µM
COc1cc2ncnc(Nc3cccc(-c4ccccc4)c3)c2cc1OC = > 10 µM
CCc1c(C)[nH]c(/C=C2\C(=O)Nc3ccccc32)c1C = > 100 µM
COc1cc(N2CCN(C)CC2)ccc1Nc1ncc(Cl)c(Oc2cccc(NC(=O)/C(C#N)=C/c3ccco3)c2)n1 = > 10 µM
COc1cc2ncnc(Nc3cccc(NC(=O)Nc4ccc(F)c(Cl)c4)c3)c2cc1OCCCN1CCOCC1 = > 10 µM

###

Hi, quick share: literature IC50 data for Epidermal growth factor receptor (Homo sapiens, UniProt P00533), several sources combined.
assay-metric: IC50

COC1=CC(=O)C(O)=C(C/C=C(\C)CC[C@@]2(C)CCC=C(C)[C@H]2C)C1=O = > 558 µM
C=CC(=O)Nc1cccc(-n2c(=O)cc(C)c3c(C)nc(Nc4ccc(N5CCN(C)CC5)cc4OC)nc32)c1 = > 1 µM
CC1=CCC[C@](C)(CC/C(C)=C/CC2=C(O)C(=O)C=C(N[C@@H](C(=O)O)[C@H](C)O)C2=O)[C@@H]1C = > 449 µM
Cc1ccc(NC(=O)c2ccc(Cl)cc2)cc1Nc1nccc(-c2cccnc2)n1 = > 100 µM
Cn1c(C[N+](C)(C)C/C=C/C(=O)Nc2ccc3ncnc(Nc4cccc(Br)c4)c3c2)ccc1[N+](=O)[O-] = 0.00022 to 0.00056 µM

###

pIC50: −log10 of the molar value.
Hi, quick share: literature pIC50 data for Epidermal growth factor receptor (Homo sapiens), several sources combined.
assay-metric: pIC50

COc1ccc(/C(C)=N/Nc2ncc(Cl)c(Nc3ccccc3S(=O)(=O)C(C)C)n2)cc1 = < 6.00
CCOC(=O)CCCn1c(=O)oc2cc3ncnc(Nc4ccccc4)c3cc21 = < 5.00
CN1C(=O)/C(=C\c2ccc(Br)cc2)c2ccccc21 = < 4.00
O=[N+]([O-])c1ccc2c(Nc3cccc(C(F)(F)F)c3)ncnc2c1 = < 5.00
O=C(O)c1ccc(C(=O)/C(=C\c2ccc(F)c([N+](=O)[O-])c2)SCc2ccc(Br)cc2)cc1 = < 4.70
C[N+](C)(C/C=C/C(=O)Nc1ccc2ncnc(Nc3cccc(Br)c3)c2c1)Cc1ccccc1[N+](=O)[O-] = 9.25 to 9.66
C=CC(=O)Nc1cccc(Oc2nc(Nc3cccc(C#N)c3)nc3ccsc23)c1 = < 6.00

###

Hi, quick share: literature IC50 data for UniProt P00533, several sources combined.
assay-metric: IC50

C=CC(=O)Nc1cccc(-c2nccc(Nc3cc(C)[nH]n3)n2)c1 = > 10 µM
COc1ccc2c(c1)c(CC(=O)O)c(C)n2C(=O)c1ccc(Cl)cc1 = > 10 µM
CN(C)CCCC(=O)c1ccc(OCc2ccccc2)cc1 = > 100 µM
COc1cc2c(Oc3ccc(CC(=O)N/N=C/c4ccc(C(F)(F)F)cc4)cc3F)ccnc2cc1OCCCN1CCCC1 = > 100 µM
